- Procedure summary: qHTS Screen of the MIPE 4.0 Collection Against Ewings Sarcoma (EW8) (AID 1259255); also: nearly all actives have a fitted effect of over 35% in size;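 as to viability: 100% = DMSO-treated cells and 0% = medium-only wells without cells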
- Test parameters: EW8 Ewing sarcoma viability, CellTiter-Glo, 48 h; series mostly up to 45.8 µM
Records with an inconclusive call do not appear. The source made the active and inactive calls. Calls follow the shape of the dose curve; as a rule, active = well fitted inhibition curve with a large enough effect; inconclusive = small, poorly fitted or top-dose-only effect; inactive = no such curve, though single readings can be large or run the other way.
Please state which outcome applies, choosing from true (active), false (inactive)

Outcome logged for S=C(NCc1ccc2c(c1)OCO2)N1CCN(c2ncnc3c2oc2ccccc23)CC1 in this assay:
true

Param item: C[C@]1(c2nc3c(C(N)=O)cccc3[nH]2)CCCN1
false

Now the compound Nc1nc2c(ncn2COCCO)c(=O)[nH]1
false

Now consider CCc1cc(Nc2nccc(-c3c(-c4ccc(OC)c(C(=O)Nc5c(F)cccc5F)c4)nc4ccccn34)n2)c(OC)cc1N1CCC(N2CCN(S(C)(=O)=O)CC2)CC1 and answer again.
true

Now give it for CCn1c(-c2nonc2N)nc2c(C#CC(C)(C)O)ncc(OC[C@H]3CCCNC3)c21 too.
true

Can you check C#Cc1cccc(Nc2ncnc3cc(OCCOC)c(OCCOC)cc23)c1 next?
true

Cool, now CCN(c1ccccc1)c1cc(NC)[n+](C)c(C)n1
false

And then CNC(=O)c1ccc(N2C(=S)N(c3ccc(C#N)c(C(F)(F)F)c3)C(=O)C2(C)C)cc1F , what is it?
false

Others:
Record request — test call for Clc1cccc(Cl)c1NC1=NCCN1
false

Next record, please: Cc1cc2c(F)c(Oc3ncnn4cc(OC[C@@H](C)O)c(C)c34)ccc2[nH]1
true

---

- Procedure summary: HTS Assay for Allosteric Antagonists of the Human D2 Dopamine Receptor: Hit Validation in HTRF (AID 624455);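 also: stable D1 dopamine receptor cell line scored for blocking the D1 response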
- Test parameters: Cells stably expressing D1 dopamine receptor, inhibition mode; series mostly up to 46.1 µM
- Source text: Dopamine receptors (DARs) are involved in the etiology and/or therapy of a number of neuropsychiatric and endocrine disorders. For instance, all receptor-based antiparkinsonian drugs work via stimulating the D2 DAR subtype whereas all FDA-approved antipsychotic agents are antagonists of this receptor. […]
Inconclusive results are not listed. Activity calls are given as the source filed them. Calls come from the whole dose curve; as a rule, active = well fitted inhibition curve with a large enough effect; inconclusive = small, poorly fitted or top-dose-only effect; inactive = no such curve, though single readings can be large or run the other way.
Assign a class; possible classes are active, inactive

Field: example entries. Status: answers known.
Can you look up the reported call for OC(CCN1CCCCC1)(c1ccccc1)C1CC2C=CC1C2 (centres undefined) for me?
inactive

Entry CCn1cc(C(=O)O)c(=O)c2cc(F)c(N3CCNC(C)C3)c(F)c21 (centres undefined) please
inactive

Moving on to the next compound: NNCCc1ccccc1
inactive

Next:
Recorded call for CNC[C@H](O)c1cccc(O)c1 ?
active

---

- Procedure summary: qHTS profiling of the MIPE4 collection as inhibitors of Plasmodium falciparum (DD2) proliferation (AID 743345)
- Test parameters: P. falciparum Dd2 in erythrocytes, SYBR Green DNA, 72 h; at 28.5 µM (top of the series) unless noted
Readout kind: parasite growth remaining, % of DMSO control (lower = more inhibition) (%)
One number for each entry, in %.

# annotated cases, reported parasite growth remaining, % of DMSO control (lower = more inhibition) shown
# parasite growth remaining, % of DMSO control (lower = more inhibition) lookup, item CCc1cc(Nc2nccc(-c3c(-c4ccc(OC)c(C(=O)Nc5c(F)cccc5F)c4)nc4ccccn34)n2)c(OC)cc1N1CCC(N2CCN(S(C)(=O)=O)CC2)CC1
6.42

Cool, now O=C(Nc1cccnc1)N1CCC(Cc2cccc(Oc3ccc(C(F)(F)F)cn3)c2)CC1
52.2

Thanks! And CC1(C)CNc2cc(NC(=O)c3cccnc3NCc3ccncc3)ccc21 ?
86.3

Batch request: parasite growth remaining, % of DMSO control (lower = more inhibition) for each of the following compounds.
1. O=c1ncn2nc(Sc3ccc(F)cc3F)ccc2c1-c1c(Cl)cccc1Cl
2. COCC(=O)NCC=Cc1ccc2ncnc(Nc3ccc(Oc4ccc(C)nc4)c(C)c3)c2c1
3. O=c1n(CCCN2CCN(c3cccc(Cl)c3)CC2)nc2ccccn12
4. CN(C)c1ccc(Nc2nc(N)n(C(=O)c3c(F)cccc3F)n2)cc1
5. COc1cc(Nc2ncc3c(n2)-c2ccc(Cl)cc2C(c2c(F)cccc2OC)=NC3)ccc1C(=O)O
6. COc1ccc2nc(S(=O)Cc3ncc(C)c(OC)c3C)[nH]c2c1 (stereo not given)
7. O=C(C1CC1)N1CC[C@@H](Cn2c(-c3ccc(-c4ccc5occc5c4)cc3)nc3cnccc32)C1

1. 76.3
2. 70.2
3. 82.9
4. 51.7
5. 69.6
6. 95
7. 78.6

Dear reader, for each entry below, please note its parasite growth remaining, % of DMSO control (lower = more inhibition).
1. CC[C@@H](C)[C@H](NC(=O)[C@H](CC1CCCCC1)NC(=O)c1ccno1)C(=O)N1CCC2(CCc3ccccc32)CC1
2. CNC(=O)c1ccc(N2C(=S)N(c3ccc(C#N)c(C(F)(F)F)c3)C(=O)C2(C)C)cc1F
3. C[C@]1(c2nc3c(C(N)=O)cccc3[nH]2)CCCN1
4. O=C1CCC(N2C(=O)c3ccccc3C2=O)C(=O)N1 (stereo not given)

7.23
86.3
94.9
88.8

Dear colleague, could you send me parasite growth remaining, % of DMSO control (lower = more inhibition) for each of the items below? Thanks.
1. CC(C)NCC(O)COc1ccc(COCCOC(C)C)cc1 (stereo not given)
2. Nc1nccc(-c2ccc3noc(-c4ccc(Cl)cc4)c3c2)n1

[102, 92.5]
